- Tested on: NCI-H226
- assay_remarks: NCI tumour cell line growth inhibition, 48 h
Active and inactive are the calls of the source. Rule as the data show it: active = GI50 up to about 1.1 µM and inactive = higher.
Outcome codes: TRUE (active), FALSE (inactive)

> print(dat)
                                   molecule  classification
1  O=C(O)CC(Cc1ccccc1)C(=O)O (centres undefined)           FALSE
2  COc1ccc([C@@]23Oc4cc(OC)cc(OC)c4[C@]2(O)[C@H](O)[C@H](C(=O)N(C)C)[C@H]3c2ccccc2)cc1 [ROCAGLAMIDE]            TRUE
3  C[n+]1c(-c2ccc(NC(=O)c3ccc(C(=O)Nc4ccc(-c5cn6ccccc6[n+]5C)cc4)cc3)cc2)cn2ccccc21           FALSE
4  CC1C[C@]2(C[C@@H](C)C(=O)O2)OC2CC3(C)C4CCC5C(C)(C)OC(=O)CC[C@@]56C[C@@]46CC[C@]3(C)C12 (some centres undefined)           FALSE
5  c1ccc(-c2cc(-c3cc(-c4ccccc4)[nH]n3)[nH]n2)cc1           FALSE
6        Cc1nnc(N)nc1/C=C/c1c(O)ccc2ccccc12           FALSE
7  COC(=O)C(=C/c1ccc(OC)cc1)/C(C(=O)O)=C(/C)c1ccccc1           FALSE
8  Cc1cn(C2CC(n3cncn3)C(C(C)O)O2)c(=O)[nH]c1=O (centres undefined)           FALSE
9              C1=Nc2sc3c(c2C2=NCCN12)CCCC3           FALSE

* * *

- Tested on: SN12C
- assay_remarks: NCI tumour cell line growth inhibition, 48 h
Calls of active or inactive are those of the source. Rule as the data show it: active = GI50 up to about 1.1 µM and inactive = higher.
Outcome codes: t for active, f for inactive

molecule	classification
CCOC(=O)C1Oc2ccc([N+](=O)[O-])c3c2C1(O)CCC3 (stereo not given)	f
COc1cc(/C=C/C2=C(C#N)C(=O)OC2(C)C)ccc1O	f
O=[N+]([O-])c1ccc2nc3ccc([N+](=O)[O-])cn3c2c1	f
O=c1cc(-c2ccccc2)[nH]c2cc(F)c(F)cc12	f
C/C([O-])=C(/c1nc(-c2ccc([N+](=O)[O-])o2)no1)[n+]1cc(C)ccc1C	f
C=CCOC(=O)CCCCCCCCCCCCCCCOC(=O)c1c(CCC[C@@H](C)O[Si](C)(C)C(C)(C)C)nc([O-])[n+]2c1CC[C@H]2CC1(CC/C=C\[C@H](CC)O[Si](C(C)C)(C(C)C)C(C)C)OCCO1	f
Oc1ncnc2c1nnn2CCCCCCCCCCCCn1nnc2c(O)ncnc21	f
BrC1=CC=C2NC=CC3=CC=NC1C32 (stereo not given)	f
COC(=O)C(=C/c1ccc(OC)cc1)/C(C(=O)O)=C(/C)c1ccccc1	f
Cc1nn2c(=O)n(-c3cccc(-n4nnc5c(-c6ccccc6)c(C)nn5c4=O)c3C)nnc2c1-c1ccccc1	f
Cn1cnnc1SC(F)(F)c1nc2ccccc2o1	f
CC1(C)c2ccccc2C(=O)C12CCC(=O)CC2	f
CC(C)(O)CO/N=C1\C(=C2\C(=O)Nc3ccccc32)Nc2ccccc21	f
CC(=O)c1cc2c(s1)C(=O)c1sccc1C2=O	t
COC1(C2c3ccccc3CCN2C(=O)OC(C)(C)C)C(=O)C(c2ccccc2)=C1N(C)C (stereo not given)	f
S=P(c1ccccc1)(c1ccccc1)C1(C2(P(=S)(c3ccccc3)c3ccccc3)CC2)CC1	f
COC(=O)/C1=C/C2CC(/C=C(/c3ccccc3)C(=O)O1)C2	f
O=S(=O)(/C=C/C(=C/c1ccccc1)S(=O)(=O)c1ccccc1)c1ccccc1	f
CN1CCN(c2ccc3nc(-c4cc(O)c5c(nc(CO)n5C)c4O)[nH]c3n2)CC1	f
Cc1[nH]c2ccccc2c1/C=N/c1ccc(Oc2ccccc2)cc1	f

* * *

- Test system: HCC 2998
- assay_remarks: NCI tumour cell line growth inhibition, 48 h
Active and inactive are the calls of the source. No stated cut-off is given here; in the data, active = GI50 up to about 1.1 µM and inactive = higher.
Outcome codes: active, inactive

> print(dat)
                                    compound  classification
 1  Cc1cc(=O)c2c(O)cc3c(c2o1)CC=C(COC1OC(COC2OC(CO)C(O)C(O)C2O)C(O)C(O)C1O)CO3 (stereo not drawn)        inactive
 2             O=C(O)CSc1nnc(Cc2ccccc2)[nH]1        inactive
 3  COC(=O)C1CC2(C)C=CC1N(C(=O)OCc1ccccc1)C2 (stereo not drawn)        inactive
 4  CC(=O)NCCCCCCNC(C)=O [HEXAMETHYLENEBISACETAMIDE]        inactive
 5  Cc1ccc(N(C(=O)CC(=O)N2N=C(c3ccccc3)C(/N=N/c3ccc([N+](=O)[O-])cc3)C2=O)C(=O)c2ccc(Cl)cc2)cc1 (stereo not drawn)        inactive
 6  COc1ccc(C2SC(=N)Nc3c2c(C)nn3C(=O)c2ccc(Cl)cc2)cc1 (stereo not drawn)        inactive
 7                  Cc1ccc(/C=N/NC2=NCCN2)s1        inactive
 8  N=C(N)C1CN(CCc2c[nH]cn2)C(=O)NC1=O (stereo not drawn)        inactive
 9  O=C(O)CN(CCNC(=O)OCC1c2ccccc2-c2ccccc21)CCNC(=O)OCC1c2ccccc2-c2ccccc21        inactive
10  O=C(c1ccccc1)c1nc2ccc(Cl)cc2c2c1Cc1ccccc1-2        inactive
11              c1ccc(COc2ncccc2C2SCCCS2)cc1        inactive
12  C=C(c1ccccc1N)[C@@]1(O)C[C@H](/C(=C\C)CO)C[C@@H]1NCc1ccccc1        inactive
13  C=C[C@@]1(C)CC[C@@H]2[C@@]3(C1)O[C@H]3CC1[C@](C)(C(=O)OC)CCC[C@@]12C (stereo partly drawn)        inactive
14  CCCCc1c2c(nc3c1CCc1cc4cc5c(nc4nc1-3)-c1nc3c(c(CCCC)c1CC5)CCCC3)CCCC2        inactive
15  CCOC(=O)c1c(N2CCCC2)[nH]c(=O)c(C(c2ccc(Cl)c([N+](=O)[O-])c2)c2c(O)c(C(=O)OCC)c(N3CCCC3)[nH]c2=O)c1O        inactive
16  C=C1CC(Cn2ccc(=O)[nH]c2=O)(c2ccc(Cl)cc2)OC1=O (stereo not drawn)        inactive
17  CC(=O)O[C@H]1C[C@]2(O)[C@@H]3CC[C@@H]4C[C@@H](O)CC[C@]4(C)[C@H]3CC[C@]2(C)[C@H]1C1=CC(=O)OC1          active
18  CCOC(=O)c1c(N2CCOCC2)[nH]c(=O)c(C(c2ccc(Cl)c([N+](=O)[O-])c2)c2c(O)c(C(=O)OCC)c(N3CCOCC3)[nH]c2=O)c1O        inactive

* * *

- System: SF-539
- assay_remarks: NCI tumour cell line growth inhibition, 48 h
Activity calls are given as the source filed them. No stated cut-off is given here; in the data, active = GI50 up to about 1.1 µM and inactive = higher.
Outcome codes: active, inactive

> print(dat)
                                    molecule  classification
 1  N#CC1=C(S)N(C2OC(CO)C(O)C(O)C2O)C(c2ccccc2)=CC1c1cccs1 (stereo unspecified)        inactive
 2  O=c1[nH][nH]c(=O)n1Cc1cccc(Cn2c(=O)[nH][nH]c2=O)c1        inactive
 3        N/C(=N\N=C=C1C(=O)Nc2ccc(F)cc21)NO        inactive
 4  Cc1cccc(C(C)(C)C)c1NC(=O)C(=O)Cc1nc2ccccc2s1        inactive
 5           CC(=O)Nc1ccc(-c2nc3ccccc3s2)cc1        inactive
 6  CCOC(=O)CCC(C(=O)OCC)n1nnc2cc(Nc3c(C)[n+]([O-])c4cc(Cl)ccc4[n+]3[O-])ccc21 (stereo unspecified)        inactive
 7  CN1CCN(c2ccc3nc(-c4cc(O)c5c(nc(CO)n5C)c4O)[nH]c3n2)CC1        inactive
 8  NN/C(=N\S(=O)(=O)c1cc2ccccc2s1)Nc1ccc(Cl)cc1        inactive
 9      N#Cc1nc(Nc2ccc([N+](=O)[O-])cc2)sc1N        inactive
10  Clc1ccc(Nc2nnc(CNc3ccc(-c4nnc(Nc5ccc(Cl)cc5)o4)cc3)o2)cc1        inactive
11  CC(C)(C)c1ccc2c(c1)C#Cc1cc3c(cc1OCCCO2)C#Cc1cc(C(C)(C)C)ccc1OCCCO3        inactive
12  COc1ccc(C2SC(=N)Nc3c2c(C)nn3C(=O)c2ccc(Cl)cc2)cc1 (stereo unspecified)        inactive
13              CCOc1cc[n+]([C-](C#N)C#N)cc1        inactive
14  COC(=O)/C=C(/C=C1/C(C#N)=C(N)N(c2ccc(Cl)cc2)C1(C)/C(=C/C(=O)OC)C(=O)OC)C(=O)OC (stereo unspecified)        inactive
15  N#C[C@@]12CCCC(=O)[C@@H]1[C@H]1CCC[C@H]12        inactive
16     COc1ccc2nc(-c3cccc(N(C)C)c3)cc(O)c2c1          active
17  Cc1[nH]c2ccccc2c1/C=N/c1ccc(Oc2ccccc2)cc1        inactive
18                 NC(=S)N/N=C1\CCc2ccccc2C1        inactive
19  Cc1nc2c(cc1OCc1ccccc1)C(=O)C1=C(C2=O)C2OC(=O)CC2OC1(C)C (stereo unspecified)          active
20  CCOC(=O)c1nc2ccccc2nc1Oc1cc(OC)c(OC)c(OC)c1        inactive
21    Cc1cc2c(=O)cc(-c3cccs3)oc2c(C(=O)O)c1C        inactive
